The values you see were collected from PubChem BioAssay (NCI).

Test system: A549 NSCLC
experimental-details: NCI tumour cell line growth inhibition, 48 h; in the data active means GI50 below about 0.43 µM; inactive means the rest
Lab note: assign the record to one of active, inactive

Past entries and their recorded results:
>  <compound>
Cn1cc(-c2csc(-c3cn(CCN4CCOCC4)c4ccc(F)cc34)n2)c2cccnc21

>  <qualitative-label>
inactive

$$$$
>  <compound>
CCN(CC)c1ccc(/C=C/C(=O)c2cccc(NS(C)(=O)=O)c2)cc1

>  <qualitative-label>
inactive

$$$$
>  <compound>
Cc1cc(N(CCCNc2ccnc3cc(Cl)ccc23)Cc2cccs2)nc(Cl)n1

>  <qualitative-label>
inactive

$$$$
>  <compound>
COc1ccc2nc(-c3ccccc3)cc(Nc3ccc(/C(C)=N/O)cc3)c2c1

>  <qualitative-label>
inactive

$$$$
>  <compound>
O=C(c1ccc(O)cc1)c1ccc(C(=O)c2ccc(O)cc2)cc1

>  <qualitative-label>
inactive

$$$$

Please indicate how the test categorized `C/C1=C\CC[C@@](C)(O)[C@H]2C[C@H](CC/C(C)=C/CC1)C1(CC1)C(=O)O2` .
inactive

Query O=C1OCC2=C1C(c1cccc(F)c1)c1cc3c(cc1N2CCO)OCCO3 (configuration not stated) next
active

----------
System: MALME-3M melanoma
experimental-details: NCI tumour cell line growth inhibition, 48 h
Entries annotated with measured GI50

Sample records with GI50:
>  <compound>
O=C1C=C(N2CC2)c2ccccc2C1=O

>  <GI50>
1930 nM

$$$$
>  <compound>
O=C1Nc2ccccc2C12CC(c1ccccc1)=NN2 (stereo not drawn)

>  <GI50>
3890 nM

$$$$

Dear colleague, I am looking for the recorded GI50 of the following compound: `COC(=O)[C@]12CC[C@@H](C)[C@H](C)[C@@H]1C1=CC[C@@H]3[C@@]4(C)C(c5ncon5)=C[C@@](C)(CO)C4=CC[C@@]3(C)[C@]1(C)CC2`
1670 nM

Query `Cc1ccc(C(=O)Nc2ccc(CN3CCN(C)CC3)c(C(F)(F)F)c2)cc1C#Cc1cncc2ncccc12` next
113 nM

Query `c1ccc(-c2n(Cc3ccc4ccccc4n3)c3ccccc3[n+]2Cc2ccc3ccccc3n2)cc1` next
336 nM

Query O=C1CC(c2ccccc2)Cc2nc3ccc(Cl)cc3cc21 (stereo not drawn) next
45.3 nM

Query `COc1ccc(C(=O)Nc2ncc(Cc3ccc(F)cc3)s2)cc1` next
85.5 nM

Query `CC(=O)OCCC/C(=C\c1ccc2ccccc2c1)[N+](=O)[O-]` next
1910 nM

Query COC(=O)C1CC2(c3ccc(C)cc3)C(c3ccc(C)cc3)=C(c3ccc(C)cc3)C1(c1ccc(C)cc1)S2=O (stereo not drawn) next
> 100000 nM

Query `CC(=O)NNC(=O)c1nn(-c2ccc(Cl)cc2)cc1OC(C)=O` next
25700 nM

Query `NCCCn1c2c(c3ccc([N+](=O)[O-])cc3c1=O)C(=O)c1cc3c(cc1-2)OCO3` next
488 nM

Query `Cc1c(N2C(=O)/C(=C\c3ccc(O)cc3)N=C2c2ccccc2)c(=O)n(-c2ccccc2)n1C` next
> 100000 nM

Query `CC(C)[C@@H](C(=O)O[C@@H]1/C=C/C(=O)O[C@@H](C)CCC/C=C/[C@@H]2C[C@H](O)C[C@H]21)[N+](C)(C)C` next
> 100000 nM

----------
Test system: HCT-116 colon
experimental-details: NCI tumour cell line growth inhibition, 48 h; in the data active = GI50 below about 0.43 µM; inactive = the rest
Lab note: assign the record to one of active, inactive

>  <molecule>
c1ccc(Cn2cc3c(c2)-c2oncc2CC3)cc1

>  <qualitative-label>
active

$$$$

Please indicate how the test categorized `Cc1cc(-c2ccccc2)c(C)n1Cc1ccc(Cl)cc1` .
inactive

Query O=S(=O)(NC(=S)Nc1ccccc1)c1ccc(N2N=C3c4ccccc4CC3C2c2ccc(Cl)cc2)cc1 (centres undefined) next
inactive

Query `COc1ccc(N2CCN(CC(=O)N3CCN(c4nnc(-c5ccccc5)c(-c5ccccc5)n4)CC3)CC2)cc1` next
inactive

----------
System: KM12 colon
experimental-details: NCI tumour cell line growth inhibition, 48 h
value-type: TGI

Sample records with TGI:
>  <molecule>
O=C(CCCn1ccnc1[N+](=O)[O-])NCCn1cnc([N+](=O)[O-])c1

>  <endpoint-value>
> 100 µM

$$$$
>  <molecule>
COC(=O)C1=C(OC(=O)/C(=C/c2ccc(Cl)cc2)c2ccccc2)C(C(=O)OC)[C@@]2(O)[C@@H](C(=O)OC)[C@H](C)C[C@@H]1[C@@H]2C(=O)OC (some centres undefined)

>  <endpoint-value>
> 100 µM

$$$$
>  <molecule>
CC(C)C(/C=C/c1ccccc1)=N\NC(=O)N/N=C(/C=C/c1ccccc1)C(C)C

>  <endpoint-value>
> 100 µM

$$$$
>  <molecule>
C/C=C/C=C/C1=NN(c2cccc(S(=O)(=O)O)c2)C2(C1)SCC(=O)N2c1nc2ccccc2s1 (centres undefined)

>  <endpoint-value>
> 100 µM

$$$$
>  <molecule>
COc1ccc(-c2nnc3n(C)c(=O)c4ccccc4n23)cc1O

>  <endpoint-value>
> 100 µM

$$$$
>  <molecule>
CN(C)CCCNC(=O)c1cc2c3ccccc3[nH]c2c2ncccc12

>  <endpoint-value>
67.3 µM

$$$$
>  <molecule>
C=C1c2nc3ccccc3n2C=C(c2ccc(Cl)cc2)N1c1ccccc1

>  <endpoint-value>
24.7 µM

$$$$
>  <molecule>
COc1ccc(-c2cc(-c3ccccc3)c(C#N)c(=O)[nH]2)cc1

>  <endpoint-value>
> 100 µM

$$$$

Dear colleague, I am looking for the recorded TGI of the following molecule: `c1ccc(C(=NNc2nc3ccccc3[nH]2)c2ccccn2)nc1`
> 80.3 µM

----------
Tested on: HT29 colon
experimental-details: NCI tumour cell line growth inhibition, 48 h
value-type: TGI

Sample records with TGI:
>  <compound>
O=C(O)c1cn(C2CC2)c2cc(N3CCN(S(=O)(=O)c4ccc(Cl)c(Cl)c4)CC3)c(F)cc2c1=O

>  <TGI>
> 100 µM

$$$$
>  <compound>
O=C1c2ccccc2C2(c3ccc(Cl)cc3)NCc3ccccc3CN12 (stereo not given)

>  <TGI>
28.5 µM

$$$$
>  <compound>
O=C1c2ccccc2C(=O)N1C(=S)c1ccccc1

>  <TGI>
> 100 µM

$$$$
>  <compound>
Cc1cccc2c(N)c3cccc(C(=O)NCC[N+](C)(C)Cc4sc(N5CCOCC5)nc4[N+](=O)[O-])c3nc12

>  <TGI>
2.74 µM

$$$$
>  <compound>
COC(=O)[C@]12CC[C@@H](C)[C@H](C)[C@@H]1C1=CC[C@@H]3[C@@]4(C)C(c5ncon5)=C[C@@](C)(CO)C4=CC[C@@]3(C)[C@]1(C)CC2

>  <TGI>
3.88 µM

$$$$

Dear colleague, I am looking for the recorded TGI of the following compound: `COc1cc2c(c3oc(-c4ccc5c(c4)OCO5)c(O)c(=O)c13)CCC(C)(C)O2`
> 100 µM

Query COC(=O)c1ccc(C)cc1C1CN=NC12Cc1cc(C)c(C)cc1C2=O (stereo not given) next
> 100 µM

Query `CC(=O)c1ccc2c(c1)oc(=O)n2CCN(C)C` next
> 100 µM

Query CCCCCCC(CCl)c1sc(-c2csc(CCNC(=O)OC(C)(C)C)n2)nc1C(=O)OC (stereo not given) next
51.2 µM

Query c1ccc(C(CCN2CCCC2)c2ccccn2)cc1 (stereo not given) next
> 100 µM

Query O=C1C2C(C(=O)[N]1[Hg][c]1ccccc1)C1(Cl)C(Cl)=C(Cl)C2(Cl)C1(Cl)Cl (stereo not given) next
4.25 µM

Query `O=C(Cc1ccc(/C=C/C(=O)c2ncc[nH]2)cc1)Nc1ccc(Br)cc1` next
3.71 µM

Query CC1SC2=NC3=C(c4ccccc4C3=O)C(c3ccc(Br)cc3)N2C1=O (stereo not given) next
> 100 µM

Query `COc1ccc(CNc2nc3ccccc3nc2-c2cccs2)cc1OC` next
> 100 µM

----------
System: COLO 205 colon
experimental-details: NCI tumour cell line growth inhibition, 48 h
value-type: TGI (µM)
Answer format: numeric, µM implied, no suffix.

Sample records with TGI:
>  <compound>
CC(C)(C)c1ccc(C(=O)N/N=C/c2ccc(O)cc2O)cc1

>  <endpoint-unit>
µM

>  <endpoint-value>
6.76

$$$$
>  <compound>
c1ccc(C(=NNc2nc3ccccc3[nH]2)c2ccccn2)nc1

>  <endpoint-unit>
µM

>  <endpoint-value>
16.1

$$$$
>  <compound>
O=C1C2C(C(=O)[N]1[Hg][c]1ccccc1)C1(Cl)C(Cl)=C(Cl)C2(Cl)C1(Cl)Cl (centres undefined)

>  <endpoint-unit>
µM

>  <endpoint-value>
2.05

$$$$

# evaluate next
Dear colleague, I am looking for the recorded TGI of the following compound: CCOC(=O)/C=C(/C(=O)OCC)n1c(=O)c(C)cn(C2CC(N=[N+]=[N-])C(CO)O2)c1=O (centres undefined)
30.1
